// data source = ChEMBL document CHEMBL4689842

Tested on: HEK-293T
assay text: Multiplex assay against HEK293T
Type: toxicity, cell-based
recorded conditions: human, 12 h, 10 µM, compound concentration 10 uM, replicate 1
Assign Population Normal (%) to each entry below.
Answer format: numeric, % implied, no suffix.

HEK-293T assay, molecule C[C@@H](NCCCc1cccc(C(F)(F)F)c1)c1cccc2ccccc12.Cl [CINACALCET HYDROCHLORIDE] , recorded Population Normal (%) = 80

HEK-293T assay, molecule CN1CCCC(n2nc(Cc3ccc(Cl)cc3)c3ccccc3c2=O)CC1.Cl (centres undefined) [AZELASTINE HYDROCHLORIDE] , recorded Population Normal (%) = 80

HEK-293T assay, molecule Cl.N#Cc1ccc2[nH]cc(CCCCN3CCN(c4ccc5oc(C(N)=O)cc5c4)CC3)c2c1 [VILAZODONE HYDROCHLORIDE] , recorded Population Normal (%) = 74

HEK-293T assay, molecule CC(C)NCC(O)COc1ccc(CCOCC2CC2)cc1.Cl (centres undefined) [BETAXOLOL HYDROCHLORIDE] , recorded Population Normal (%) = 86

----------
Tested on: Fibroblast
assay text: Multiplex assay against human fibroblast
Format: toxicity, cell-based
recorded conditions: 12 h, 10 µM, compound concentration 10 uM, replicate 1
Assign Population Apoptotic (%) to each entry below.
Answer format: numeric, % implied, no suffix.

Quick note, Population Apoptotic (%) for Cc1c(-c2ccc(O)cc2)n(Cc2ccc(OCCN3CCCCCC3)cc2)c2ccc(O)cc12 [BAZEDOXIFENE] landed at 72

Quick note, Population Apoptotic (%) for COc1cccc([C@@H](C)NCCCc2ccccc2Cl)c1.Cl [TECALCET HYDROCHLORIDE] landed at 62

Quick note, Population Apoptotic (%) for COc1ncc(-c2ccc3nccc(-c4ccnnc4)c3c2)cc1NS(=O)(=O)c1ccc(F)cc1F [OMIPALISIB] landed at 78

Quick note, Population Apoptotic (%) for Cc1csc2c(N[C@@H](C)CN3CCN(S(=O)(=O)c4ccc(Cl)c(Cl)c4)CC3)ncnc12 landed at 52

Quick note, Population Apoptotic (%) for Cc1nc(Nc2n[nH]c3c2CN(C(=O)N[C@H](CN(C)C)c2ccccc2)C3(C)C)c2sccc2n1 [PF-03758309] landed at 62

Quick note, Population Apoptotic (%) for Cn1cc(-c2[nH]c3cc(NC(=O)[C@H](N)C4CCCCC4)cc4c3c2C=NNC4=O)cn1 landed at 69

Quick note, Population Apoptotic (%) for C=CC(=O)Nc1ccc2ncnc(Nc3ccc(OCc4cccc(F)c4)c(Cl)c3)c2c1.Cc1ccc(S(=O)(=O)O)cc1 landed at 77

Quick note, Population Apoptotic (%) for C[C@@H](NCCCc1cccc(C(F)(F)F)c1)c1cccc2ccccc12.Cl [CINACALCET HYDROCHLORIDE] landed at 57

Quick note, Population Apoptotic (%) for CC(C)NCC(O)COc1ccc(CCOCC2CC2)cc1.Cl (configuration not stated) [BETAXOLOL HYDROCHLORIDE] landed at 67

Quick note, Population Apoptotic (%) for c1cn2cc(-c3ccc4cn[nH]c4c3)nc(Nc3ccc(N4CCOCC4)cc3)c2n1 [ENTOSPLETINIB] landed at 51

Quick note, Population Apoptotic (%) for CCN(CC)CCCCNc1ncc2cc(-c3cc(OC)cc(OC)c3)c(NC(=O)NC(C)(C)C)nc2n1 [PD-173074] landed at 60

Quick note, Population Apoptotic (%) for CN(C)CC#Cc1ccc(OCCCc2sc(N3CCc4cccc(C(=O)Nc5nc6ccccc6s5)c4C3)nc2C(=O)O)c(F)c1 [A-1155463] landed at 63

Quick note, Population Apoptotic (%) for CNc1nc(NCc2ccc(NS(C)(=O)=O)cc2Cl)cc(-c2ccccn2)n1 landed at 60

Quick note, Population Apoptotic (%) for C=CC(=O)Nc1cc2c(Nc3ccc(F)c(Cl)c3)ncnc2cc1OCCCN1CCOCC1.Cl.Cl [CANERTINIB DIHYDROCHLORIDE] landed at 56

Quick note, Population Apoptotic (%) for Cc1[nH]c(/C=C2\C(=O)Nc3ccc(S(=O)(=O)N(C)c4cccc(Cl)c4)cc32)c(C)c1C(=O)N1CCN(C)CC1 landed at 61

Quick note, Population Apoptotic (%) for CN1CCN(c2ccc(OC(F)(F)F)c(Nc3ncc4c(n3)-c3c(c(C(N)=O)nn3CCO)CC4)c2)CC1 [ONVANSERTIB] landed at 68

Quick note, Population Apoptotic (%) for CC(C)(O)CNc1ncc(-c2ccnc(Nc3ccnc(Cl)c3)n2)c(CC2CC2)n1 landed at 58

Quick note, Population Apoptotic (%) for O=C1NCN(c2ccccc2)C12CCN(CCCOc1ccc(F)cc1)CC2 [SPIRAMIDE] landed at 66

Quick note, Population Apoptotic (%) for CC[C@H](C)C(=O)O[C@H]1C[C@@H](C)C=C2C=C[C@H](C)[C@H](CC[C@@H]3C[C@@H](O)CC(=O)O3)[C@H]21 [LOVASTATIN] landed at 50

Quick note, Population Apoptotic (%) for Cc1nc(-c2ccc(-c3ccc(C(=O)N4CCc5cc6c(cc54)C4(CCN(C)CC4)CO6)cc3)c(C)c2)no1 [SB-224289] landed at 71

Quick note, Population Apoptotic (%) for Cc1nc(-c2cn3c(n2)-c2ccc(-c4cnn(C(C)(C)C(N)=O)c4)cc2OCC3)n(C(C)C)n1 [TASELISIB] landed at 71

Quick note, Population Apoptotic (%) for Cl.N#Cc1ccc2[nH]cc(CCCCN3CCN(c4ccc5oc(C(N)=O)cc5c4)CC3)c2c1 [VILAZODONE HYDROCHLORIDE] landed at 69

Quick note, Population Apoptotic (%) for OC1(c2ccc(Cl)cc2)CCN(Cc2c[nH]c3ccccc23)CC1 landed at 63

Quick note, Population Apoptotic (%) for CN(C)C(=O)N[C@H]1CC[C@H](CCN2CCN(c3cccc(Cl)c3Cl)CC2)CC1.Cl [CARIPRAZINE HYDROCHLORIDE] landed at 71

Quick note, Population Apoptotic (%) for CN1CCC[C@@H]1CCO[C@](C)(c1ccccc1)c1ccc(Cl)cc1.O=C(O)/C=C/C(=O)O [CLEMASTINE FUMARATE] landed at 69

Quick note, Population Apoptotic (%) for COc1cc(-n2cnc3cc(-c4ccc(Cl)cc4)sc3c2=O)ccc1OCCN1CCCC1 landed at 62

Quick note, Population Apoptotic (%) for Cc1cc(C)cc(-c2cnc3cc(Cl)c(-c4cccc(O)c4)cc3c2OCCCN)c1 landed at 33
